The entries below are paired with their reported TGI.
- Tested on: SNB-75 CNS
- protocolNotes: NCI tumour cell line growth inhibition, 48 h
propertyMeasured: TGI

compound: O=C(O)C1CCc2nnc(-c3ccccc3)n21 (stereo not drawn)
measuredOn: SNB-75 CNS
propertyMeasured: TGI
valueObserved: > 100 µM

compound: O=C1c2ccccc2C(=O)C2C1C1C(=O)c3ccccc3C(=O)C21 (stereo not drawn)
measuredOn: SNB-75 CNS
propertyMeasured: TGI
valueObserved: > 100 µM

compound: O=C(CC(=O)c1ccc([N+](=O)[O-])cc1)C(=O)Nc1nccs1
measuredOn: SNB-75 CNS
propertyMeasured: TGI
valueObserved: > 100 µM

###

- Tested on: A498 renal
- protocolNotes: NCI tumour cell line growth inhibition, 48 h

compound: CSc1ccccc1P(c1ccccc1SC)c1ccccc1SC
TGI: > 100 µM
//
compound: CC1(c2cccc3c2C2(O)C=CC4(CCC32)OCCO4)OCCO1 (stereo not drawn)
TGI: > 100 µM
//
compound: N=C(N)C1CN(CCc2cnc[nH]2)C(=O)NC1=O (stereo not drawn)
TGI: > 100 µM

###

Quick reference for TGI among some compounds
- Tested on: SF-539 CNS
- protocolNotes: NCI tumour cell line growth inhibition, 48 h

compound: Nc1nc(N)c(C2=CCN(Cc3ccccc3)CC2)c(=O)[nH]1
measuredOn: SF-539 CNS
TGI: > 100 µM

compound: Nc1ccc2c(c1)C1=NNC(=O)CC1C2 (stereo not given)
measuredOn: SF-539 CNS
TGI: > 100 µM

compound: CCNC(C)(C)C(SS)c1ccc(Br)cc1 (stereo not given)
measuredOn: SF-539 CNS
TGI: > 100 µM

compound: CCC(CC)C(=O)OC[n+]1ccc(-c2c(COC(=O)NC(C)C)c(COC(=O)NC(C)C)c3n2CCC3)cc1
measuredOn: SF-539 CNS
TGI: > 100 µM

compound: NC(=O)c1cc(-c2ccc(-n3ccnc3)cc2)n[nH]c1=O
measuredOn: SF-539 CNS
TGI: > 100 µM

compound: Cc1nc(Cl)c(Cl)c(Cl)n1
measuredOn: SF-539 CNS
TGI: 2.82 µM

compound: CC1=CC[C@@H]2C(C)(C)C(=O)CC[C@@]2(C)[C@@H]1COc1ccc2ccc(=O)oc2c1
measuredOn: SF-539 CNS
TGI: 63.8 µM

compound: COC(=O)Nc1nc2ccc(Oc3ccc4nc(NC(=O)OC)[nH]c4c3)cc2[nH]1
measuredOn: SF-539 CNS
TGI: 1.69 µM

compound: Nc1ncnc2c1ncn2C1OC(CSC(F)(F)F)C(O)C1O (stereo not given)
measuredOn: SF-539 CNS
TGI: > 100 µM

compound: Cn1cc(C2=C(c3c4n(c5ccccc35)CCCC4)C(=O)NC2=O)c2ccccc21
measuredOn: SF-539 CNS
TGI: > 25 µM

###

Known TGI of a selection of molecules
- Test system: NCI-H226 lung
- protocolNotes: NCI tumour cell line growth inhibition, 48 h

molecule: COc1cc(N2CCN(C(C)C)CC2)ccc1Nc1nc(Nc2cccc3ncccc23)c2cc[nH]c2n1
TGI: > 25 µM

molecule: O=C(COc1ccc(/C=C2\Oc3ccccc3C2=O)cc1)Nc1nccs1
TGI: > 100 µM

molecule: Nc1ncnc2c1ncn2C1OC(CSC(F)(F)F)C(O)C1O (configuration not stated)
TGI: > 100 µM

molecule: CC(C)(C)N/N=C(\Cc1occc(=O)c1O)C(=O)Nc1ccc([N+](=O)[O-])cc1[N+](=O)[O-]
TGI: > 100 µM

molecule: O=C(/C=C1\C(=O)N(Cc2ccc([N+](=O)[O-])cc2)c2ccccc21)c1ccc(OCCN2CCCCC2)cc1
TGI: 21.4 µM

molecule: COC(=O)CCC1(C)C2CCC1(C)/C(=N/O)C2 (configuration not stated)
TGI: > 100 µM

molecule: COc1cc(/C=N/Nc2ncnc3c2cnn3C(C)C)ccc1O
TGI: > 25 µM

###

- Tested on: NCI-H23 lung
- protocolNotes: NCI tumour cell line growth inhibition, 48 h
TGI for assorted molecules

molecule: COc1cc(C2S/C(=C/c3ccccc3)C(=O)N2c2cc(Cl)ccc2Cl)cc(OC)c1OC (stereo not given)
measuredOn: NCI-H23 lung
TGI: > 100 µM
--
molecule: CO[C@H]1[C@@H](O)[C@@H](C)O[C@@H](O[C@H]2CC[C@@]3(C)[C@H](CC[C@@H]4[C@@H]3CC[C@]3(C)[C@@H](C5=CC(=O)OC5)CC[C@]43O)C2)[C@@H]1O
measuredOn: NCI-H23 lung
TGI: 0.00675 µM
--
molecule: COc1cc(-c2nn(-c3ccc(NC(=O)Nc4ccc(Cl)c(Cl)c4)cc3)cc2-c2ccncc2)ccc1Cl
measuredOn: NCI-H23 lung
TGI: 32.3 µM
--
molecule: COc1ccc(OC)c([N+](=O)[O-])c1-c1nc2sccn2c1/C=N/N=C(N)N
measuredOn: NCI-H23 lung
TGI: > 100 µM
--
molecule: CCSc1c(C)c2c(n(Cc3ccc(OC)cc3)c1=O)Cc1ccccc1C2
measuredOn: NCI-H23 lung
TGI: > 100 µM
--
molecule: C#CCn1c(=O)ccn(/C(=C\C(=O)OCC)C(=O)OCC)c1=O
measuredOn: NCI-H23 lung
TGI: 31.8 µM
--
molecule: N=CCCN(CCC=N)c1ccc(/C=C2\CN(NC(=O)c3ccc(Cl)cc3)C(c3ccccc3)=N2)cc1
measuredOn: NCI-H23 lung
TGI: > 100 µM
--
molecule: NC(=O)C(c1ccccc1)N1OC2C(=O)N(Cc3ccccc3)C(=O)C2C1c1cccc(Oc2ccc(Cl)cc2)c1 (stereo not given)
measuredOn: NCI-H23 lung
TGI: > 100 µM
--
molecule: O=C1c2cccc3cc([N+](=O)[O-])cc(c23)C(=O)N1NC1=NCCN1
measuredOn: NCI-H23 lung
TGI: > 100 µM
--
molecule: FC(F)(F)c1nc2ccc(SSc3ccc4nc(C(F)(F)F)[nH]c4c3)cc2[nH]1
measuredOn: NCI-H23 lung
TGI: > 100 µM
--
molecule: COc1ccc(-c2nn(-c3ccc(NC(=O)c4ccc(Cl)c(C(F)(F)F)c4)cc3)cc2-c2ccncc2)cc1Cl
measuredOn: NCI-H23 lung
TGI: > 100 µM
--
molecule: NCC[Se][Se]CCN
measuredOn: NCI-H23 lung
TGI: 30.6 µM
--
molecule: CC12CCC([C@H](N3CCOCC3)/C1=N\OCCN1CCCC1)C2(C)C (stereo not given in full)
measuredOn: NCI-H23 lung
TGI: > 100 µM
--
molecule: CCOC(=O)[C@@H]1C[C@H]1c1ccc(O)c(O)c1
measuredOn: NCI-H23 lung
TGI: > 100 µM
--
molecule: O=c1cc(CO)n(CCc2c[nH]c3ccccc23)cc1O
measuredOn: NCI-H23 lung
TGI: > 100 µM
--
molecule: O=C(O)CN=C(C(=NCC(=O)O)c1ccccc1)c1ccccc1
measuredOn: NCI-H23 lung
TGI: > 100 µM
--
molecule: COc1ccc(-c2cc(-c3ccccc3)n(C3OCC(OC(C)=O)C(OC(C)=O)C3OC(C)=O)c(=S)c2C#N)cc1 (stereo not given)
measuredOn: NCI-H23 lung
TGI: > 100 µM
--
molecule: CCCCSN1C(=O)c2ccccc2C1=S
measuredOn: NCI-H23 lung
TGI: > 100 µM
--
molecule: CCOC(=O)c1cc(/C=C/C(C)=C/C(=O)OC)oc1-c1ccccc1
measuredOn: NCI-H23 lung
TGI: > 100 µM
--
molecule: COc1ccc(CN2C(=O)C(Cc3cc(OC)c(OC)c(C)c3OC)NC(=O)/C2=C/c2cc(OC)c(OC)c(C)c2OC)cc1 (stereo not given)
measuredOn: NCI-H23 lung
TGI: > 100 µM

###

- Test system: UO-31 renal
- protocolNotes: NCI tumour cell line growth inhibition, 48 h
propertyMeasured: TGI

molecule: CSc1c(C#N)c(O)n(-c2ccc(C)cc2)c(=O)c1C#N
propertyMeasured: TGI
valueObserved: > 100 µM
--
molecule: C=C[C@@H](OCOCC[Si](C)(C)C)[C@@H](CC)OC(CCCOC(=O)C(C)(C)C)OC (some centres undefined)
propertyMeasured: TGI
valueObserved: > 100 µM
--
molecule: C=C(C)[C@@H]1C[C@H]2O[C@](O)(C(=C)CC(=O)/C=C(/C)C[C@@H]3OC(=O)[C@]24O[C@@H]34)[C@H]1O
propertyMeasured: TGI
valueObserved: > 100 µM
--
molecule: COc1cc(=O)oc(/C=C/C=O)c1C
propertyMeasured: TGI
valueObserved: 39.4 µM

###

Consider the following compounds and their measured TGI readings.
- Tested on: HOP-62 NSCLC
- protocolNotes: NCI tumour cell line growth inhibition, 48 h

chemicalString: COC(=O)c1ccccc1/C=C1/Cc2cccc(C)c2C1=O
TGI: > 100 µM
--
chemicalString: COc1ccc(-c2cnoc2-c2ccc(OC)c(OC)c2)cc1OC
TGI: 20.5 µM
--
chemicalString: C=C(C)[C@@H]1CC[C@]2(C)CC[C@]3(C)[C@H](CC[C@@H]4[C@@]5(C)CC[C@H](OC(=O)c6ccccc6)C(C)(C)[C@@H]5CC[C@]43C)[C@@H]12
TGI: > 100 µM

This collection of values is drawn from PubChem BioAssay (NCI).
